Origin of measurements: PubChem BioAssay (NCI)

- Tested on: MOLT-4 leukemia
- ASSAY INFO: NCI tumour cell line growth inhibition, 48 h
MEASUREMENT TYPE: TGI

Answered examples (5):
>>> df
                                   compound  readout_value
0  COc1ccc(F)cc1-c1ccnc2[nH]c(C3=CCN(C4CCC(CC(=O)O)CC4)CC3)cc12 (stereo not given)       > 100 µM
1                      CC1=NN2CCC(=O)N=C2S1       > 100 µM
2  COC(=O)C(CNC(=O)/C=C/c1ccc(OC(C)=O)c(OC(C)=O)c1)NC(=O)/C=C/c1ccc(OC(C)=O)c(OC(C)=O)c1 (stereo not given)        81.5 µM
3  CC(=O)c1c(O)cc(O)c(-c2c(C)cc(O)c3c2C(=O)c2cccc(O)c2C3=O)c1O        38.5 µM
4  CC(=O)[O][Hg][c]1s[c]([Hg][O]C(C)=O)[c]([Hg][O]C(C)=O)[c]1[Hg][O]C(C)=O        17.5 µM

**Query** So what does the record say about TGI for CCCC(=O)OC(OC(=O)CCC)c1ccc([N+](=O)[O-])o1 ?
**Result** 98.4 µM

**Query** Try this compound too: Cc1cn2cc(-c3ccc4c(c3)CC(=O)N4)nc2s1
**Result** > 100 µM
